system: ES6 (Ewing's Sarcoma); assay: combination Emax (second highest fraction inhibited in the dose matrix, 72 h); higher = more inhibition; extreme values may be limits of the assay
measuredParameter: combination Emax
Answer field: number only, no words.

- compound: "Cc1c2c(nn1C)CSCc1cc(n(C)n1)CSc1cc(c3ccccc3c1)OCCCc1c(C(=O)O)n(C)c3c-2c(Cl)ccc13 [AZD5991] + CN(C)CCCOc1ccc(-c2ccc3ncc4c(c3c2)n(C2CCOCC2)c(=O)n4C)cn1 [AZD0156] (first compound max 1 µM, 7x7, partner max 1 µM)"
  targetDesc: "ES6 (Ewing's Sarcoma)"
  reportedResult: 0.279

Recall and state the measured combination Emax for C[C@@H](Nc1cc(F)cc(F)c1)c1cc(C(=O)N(C)C)cc2c(=O)cc(N3CCOCC3)oc12 [AZD8186] + CC(=O)c1c(C)c2cnc(Nc3ccc(N4CCNCC4)cn3)nc2n(C2CCCC2)c1=O [Palbociclib] (first compound max 10 µM, 7x7, partner max 10 µM) .
0.412

Find the measured combination Emax of CC1(C)CCC(CN2CCN(c3ccc(C(=O)NS(=O)(=O)c4ccc(NCC5CCOCC5)c([N+](=O)[O-])c4)c(Oc4cnc5[nH]ccc5c4)c3)CC2)=C(c2ccc(Cl)cc2)C1 [Venetoclax] + C[C@@H]1COCCN1C2=NC(=NC(=C2)C3(CC3)[S@](=N)(=O)C)C4=C5C=CNC5=NC=C4 [AZD6738] (first compound max 1 µM, 7x7, partner max 10 µM) and report it.
0.571

---

system: GAK (Melanoma); experiment: Bliss excess, mean over the matrix (fraction); higher = more synergy;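 note: after 72 h of two-drug dosing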
// values below are reported Bliss excess
Form: value (number only, do not type unit).

- compound: "CC(=O)c1c(C)c2cnc(Nc3ccc(N4CCNCC4)cn3)nc2n(C2CCCC2)c1=O [Palbociclib] + CC1(C)CCC(CN2CCN(c3ccc(C(=O)NS(=O)(=O)c4ccc(NCC5CCOCC5)c([N+](=O)[O-])c4)c(Oc4cnc5[nH]ccc5c4)c3)CC2)=C(c2ccc(Cl)cc2)C1 [Venetoclax] (first compound max 10 µM, 7x7, partner max 1 µM)"
  targetDesc: "GAK (Melanoma)"
  Bliss excess: -0.034
- compound: "CC1(C)CCC(CN2CCN(c3ccc(C(=O)NS(=O)(=O)c4ccc(NCC5CCOCC5)c([N+](=O)[O-])c4)c(Oc4cnc5[nH]ccc5c4)c3)CC2)=C(c2ccc(Cl)cc2)C1 [Venetoclax] + C[C@@H]1COCCN1C2=NC(=NC(=C2)C3(CC3)[S@](=N)(=O)C)C4=C5C=CNC5=NC=C4 [AZD6738] (first compound max 1 µM, 7x7, partner max 10 µM)"
  targetDesc: "GAK (Melanoma)"
  Bliss excess: -0.0586

Attention now shifts to the item below.
Specify Bliss excess for C[C@@H](c1ccc2nccn2c1)n1nnc2ncc(-c3cnn(C)c3)nc21 [Savolitinib] + Cc1c2c(nn1C)CSCc1cc(n(C)n1)CSc1cc(c3ccccc3c1)OCCCc1c(C(=O)O)n(C)c3c-2c(Cl)ccc13 [AZD5991] (first compound max 1 µM, 7x7, partner max 1 µM) and stop.
0.0201

---

test system: SNU-423 (Hepatocellular Carcinoma); assay: combination Emax (second highest fraction inhibited in the dose matrix, 72 h); higher = more inhibition; extreme values may be limits of the assay
measuredParameter: combination Emax

Consider the reported combination Emax for these compounds:
- compound: "Cc1c2c(nn1C)CSCc1cc(n(C)n1)CSc1cc(c3ccccc3c1)OCCCc1c(C(=O)O)n(C)c3c-2c(Cl)ccc13 [AZD5991] + C1CN(CCC1(C(=O)N[C@@H](CCO)C2=CC=C(C=C2)Cl)N)C3=NC=NC4=C3C=CN4 [Capivasertib] (first compound max 1 µM, 7x7, partner max 3 µM)"
  targetDesc: "SNU-423 (Hepatocellular Carcinoma)"
  combination Emax: 0.341
- compound: "C[C@@H](Oc1cc(-c2cnn(C3CCNCC3)c2)cnc1N)c1c(Cl)ccc(F)c1Cl [Crizotinib] + CC1=C(C(=CC=C1)Cl)NC(=O)C2=CN=C(S2)NC3=CC(=NC(=N3)C)N4CCN(CC4)CCO [Dasatinib] (first compound max 10 µM, 7x7, partner max 2 µM)"
  targetDesc: "SNU-423 (Hepatocellular Carcinoma)"
  combination Emax: 0.934

# next compound below
Provide the reported combination Emax (system: SNU-423 (Hepatocellular Carcinoma)) for COc1cccc2c1C(=O)c1c(O)c3c(c(O)c1C2=O)C[C@@](O)(C(=O)CO)C[C@@H]3O[C@H]1C[C@H](N)[C@H](O)[C@H](C)O1 [Doxorubicin] + Cc1cc2ncnn2cc1Nc1ncc2c(n1)n(C1CCOCC1)c(=O)n2C [AZD7648] (first compound max 1 µM, 7x7, partner max 10 µM)
0.713
